B1: VPS39 (parent)
chain: LRLENNHCHIEESEHVLKKAHKYS

# Variants of: B1
# Protocol: protein stability index of a GFP-peptide fusion (GPS, HEK-293T) (PSI 1-6); higher = more stable;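 further: lentivirally expressed fusions sorted by FACS into six bins by GFP to DsRed ratio, PSI derived from sequencing read proportions per bin multiplied by bin number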
# Particulars: c terminus: a fixed tail appended
Measured protein stability index values are reported for all entries that follow.
Observation type: protein stability index

- Sequence change: "H7C"
  Observation type: "protein stability index"
  Result: 2.15
- Sequence change: "K19C"
  Observation type: "protein stability index"
  Result: 2.24
- Sequence change: "C8R"
  Observation type: "protein stability index"
  Result: 2.95
- Sequence change: "E11R"
  Observation type: "protein stability index"
  Result: 3.35
- Sequence change: "N5P"
  Observation type: "protein stability index"
  Result: 2.29
- Sequence change: "I10S"
  Observation type: "protein stability index"
  Result: 3.33
- Sequence change: "E4Y"
  Observation type: "protein stability index"
  Result: 2.53
- Sequence change: "S13I"
  Observation type: "protein stability index"
  Result: 1.32
- Sequence change: "I10R"
  Observation type: "protein stability index"
  Result: 3.01
- Sequence change: "Y23M"
  Observation type: "protein stability index"
  Result: 2.17
- Sequence change: "L1E"
  Observation type: "protein stability index"
  Result: 4.29
